system name: human UGPPase (Homo sapiens, UniProt O95848)
Construct: made in house; host or cells: E. coli AD494(DE3), plasmid pET11a-AAD15563.1
Sequence (O95848 whole entry): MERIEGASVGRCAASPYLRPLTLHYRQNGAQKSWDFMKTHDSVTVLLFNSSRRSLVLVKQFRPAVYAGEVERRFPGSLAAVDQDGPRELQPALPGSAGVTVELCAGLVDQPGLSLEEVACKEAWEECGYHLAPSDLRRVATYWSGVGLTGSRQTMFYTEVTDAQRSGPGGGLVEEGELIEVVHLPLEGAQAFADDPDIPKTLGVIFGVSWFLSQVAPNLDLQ
assay overview: UGPPase activity measurement (G1P produced, coupled NADH read-out), substrate specificity and UDPG dependence, human recombinant enzyme
Assay type: biochemical
assay setup: 5 mM of corresponding substrate, UDPG = 100%
measurement name: % activity with respect to UDPG

{"molecule": "Nc1ncnc2c1ncn2[C@@H]1O[C@H](COP(=O)(O)OP(=O)(O)OP(=O)(O)O)[C@@H](O)[C@H]1O [ATP]", "value reported": "bdl"}
{"molecule": "O=[N+]([O-])c1ccc(OP(=O)(O)Oc2ccc([N+](=O)[O-])cc2)cc1 [Bis-PNPP]", "value reported": "bdl"}
{"molecule": "O=[N+]([O-])c1ccc(OP(=O)(O)O)cc1 [PNPP]", "value reported": "bdl"}
{"molecule": "Nc1ncnc2c1ncn2[C@@H]1O[C@H](COP(=O)(O)O)[C@@H](O)[C@H]1O [AMP, adenosine 5′-monophosphate]", "value reported": "bdl"}
